The origin of these recorded values is PubChem BioAssay (NCI).

Please go through the items and note down their growth inhibition.
# ASSAY NAME: NCI Yeast Anticancer Drug Screen. Data for the rad50EPP+ strain (AID 151);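 also: 0% = growth of vehicle-treated control cultures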
# MEASUREMENT CONTEXT: S. cerevisiae rad50 mutant strain, at 1.2 µM, stronger effect = higher value
About 79,000 compounds went through this panel and 15% of them were active in at least one assay; those are over-represented in the sample as a whole.
Hi! Could you send only the number? It should be in %, unit omitted.

Enquiry: Query (molecule): COc1ccc(N=Nc2ccc3oc(=O)c(C(=O)Nc4ccccc4)cc3c2)cc1 ; field requested: growth inhibition
Return: 6

Enquiry: Now this one: Cc1cc(C(C)(C)CC(C)(C)C)cc(O)c1O
Return: 44

Enquiry: Similarly, Cn1c2nc3ccccc3c-2nc2ccccc21 ?
Return: 52

Enquiry: Could you do the same for CCOP1(=O)C=C(Sc2ccc([N+](=O)[O-])cc2[N+](=O)[O-])C(C)(C)O1 (stereo unspecified) , please?
Return: -4

Enquiry: Next: S=C1SCN(CCc2ccccc2)CN1CCc1ccccc1
Return: 26

Enquiry: Likewise for O=C(Nc1cccc(C(F)(F)F)c1)Oc1ccc(Cl)cc1C(=O)c1ccccc1 ?
Return: 26

Enquiry: Entry to check: CCCCOC(=O)CSSCC(=O)OCCCC
Return: -17

Enquiry: Similarly, CN(C)Cc1cccc(CN(C)C)[c]1[Sn]([Br])([c]1ccccc1)[c]1ccccc1 ?
Return: 19

Enquiry: Item: Cc1ccc(S(=O)(=O)N/N=C/C2(c3ccccc3)c3ccccc3-c3ccccc32)cc1
Return: 11

Enquiry: Similarly, CCOC(=O)[C@]1(Br)CC[C@@]1(Br)C(=O)OCC ?
Return: -13

Enquiry: How about this molecule: NCc1c(O)ccc2ccccc12
Return: -5

====

# ASSAY NAME: NCI Yeast Anticancer Drug Screen. Data for the bub3 strain (AID 167)
# MEASUREMENT CONTEXT: S. cerevisiae bub3 mutant strain, at 50.0 µM (retest, dose inferred, filed as 5.0), stronger effect = higher value
Compounds without any hit were thinned out: in the full panel of roughly 79,000, 15% have a hit.
ENDPOINT: growth inhibition (%)
Report as a plain number; the unit % is understood.

Enquiry: What growth inhibition value was documented for this molecule, N#CSC1CCCCNC1=O (centres undefined) ?
Return: 2

Enquiry: Moving on to the next molecule: CCCCCCCCCCCCCC(=O)OC(C)CCC1CCCO1 (centres undefined)
Return: 1

Enquiry: Another molecule: NP1(Oc2ccc(F)cc2)=NP(N)(Oc2ccc(F)cc2)=NP(Oc2ccc(F)cc2)(Oc2ccc(F)cc2)=N1 (centres undefined)
Return: 35

Enquiry: Lookup COC(=O)c1cccc(C)c1C(=O)c1c(C)cc(C)cc1C
Return: 22

Enquiry: Record: CCCCCCSc1nc(COC(=O)NC)c(COC(=O)NC)n1C
Return: 45

Enquiry: What do you have for O=C1OC2C(O)COC2(OCc2c[nH]c3ccccc23)C1O (centres undefined) (tested in a mixture with another compound) ?
Return: 46

Enquiry: Item: O=C1C=CC(=Nc2ccccc2)c2ccccc21
Return: 94

Enquiry: Moving on to Cc1ccc2occ/c(=N\Nc3ccccc3)c2c1
Return: 70

Enquiry: Same for CC1=CCC(C(C)(C)c2ccc(O)cc2)CC1 (centres undefined)
Return: 97

Enquiry: Please answer likewise for O=[N+]([O-])c1cc(S(=O)(=O)Nc2ccccc2)ccc1Cl
Return: 96

Enquiry: Then CCCCCC(=O)c1ccc(O)cc1O ?
Return: 92

Enquiry: Would you kindly repeat that for OB(O)c1ccccc1C#Cc1ccccc1B(O)O ?
Return: 20

Enquiry: Input O=C1c2c(O)cccc2-c2nn(CCNCCO)c3ccc(NCCNCCO)c1c23
Return: -13

Enquiry: What do you have for COc1ccc(N2CN(C)CSC2=S)cc1 ?
Return: 83

Enquiry: Can you handle Cc1nc2c(ncn2CCO)c(=O)[nH]1 next?
Return: 76

Enquiry: And then NNC(=S)Nc1cccc(Cl)c1 , what is it?
Return: 95

Enquiry: Now give it for CC(=O)Oc1ccc(N2C(=O)C3c4[nH]c5ccccc5c4C4CCC(C(C)(C)C)CC4C3C2=O)cc1 (centres undefined) too.
Return: 98

Enquiry: Would you kindly repeat that for CC1=CC2C(C(C)C)CC1C1C(=O)OC(=O)C21 (centres undefined) ?
Return: 66

Enquiry: // next record Cc1c(-c2ccccc2)[nH]c2ccccc12
Return: 98
